- Test system: M14 melanoma
- assay-name: NCI tumour cell line growth inhibition, 48 h; in the data active means GI50 below about 0.43 µM; inactive means the rest
Bench note: report the call from active, inactive

// known answers, use as guide
[
  {
    "compound": "CC(=O)Nc1c(I)c(C(=O)O)c(I)c(N(C)C(C)=O)c1I",
    "class-name": "inactive"
  },
  {
    "compound": "COC(=O)c1c2c(c(C)[n+]([O-])c1C)C(=O)C=C(NCc1ccc(Br)cc1)C2=O",
    "class-name": "active"
  },
  {
    "compound": "COc1ccc(C2=NNC(c3cc(Cc4ccc(O)c(C5CC(c6ccc(OC)cc6)=NN5)c4)ccc3O)C2)cc1 (stereo not given)",
    "class-name": "inactive"
  },
  {
    "compound": "CCc1ccc(Oc2nccc(-c3c(-c4ccc(F)cc4)ncn3C3CCNCC3)n2)cc1",
    "class-name": "inactive"
  }
]

Turning to the following compound.
Query :: What did this assay record as the result for CCOC(=O)c1c(C(F)(F)F)n([O-])c2ccc(Cl)cc2[n+]1=O ?
Result :: inactive
